- Study system: cloned human or rodent CNS receptors, channels, and transporters (PDSP panel) (Homo sapiens)
- Construct: expressed in transfected cells
- Test details: PDSP GPCR panel primary binding assays at 10 μM
- Measurement setup: Receptor 5-HT6; primary assay, 10 μM; mean of Inhibition 1-4
Recorded Mean % values for a group of compounds are listed next.
Please give a number only; it is taken to be in %.

compound="Cl.NC(=O)c1cnc(N[C@@H]2CCCC[C@@H]2N)nc1Nc1cccc(-n2nccn2)c1 [UNC10302682A, P505-15 (PRT06207 HCl)]" unit_tag=% endpoint_value=-7.86
compound="CCCCNc1ncc2c(-c3ccc(CN4CCN(C)CC4)cc3)cn([C@H]3CC[C@H](O)CC3)c2n1 [UNC2025C, UNC2025]" unit_tag=% endpoint_value=-7.66
compound="c1cn2cc(-c3ccc4cn[nH]c4c3)nc(Nc3ccc(N4CCOCC4)cc3)c2n1 [UNC10302678A, Entospletinib (GS-9973)]" unit_tag=% endpoint_value=-24.49

// moving on: another record for Mean %
Entry O=c1oc2ccccc2cc1-c1cn2cc(Cc3ccc(F)cc3)sc2n1 [UNC10302680A, iMDK] , Mean % reported as -16.79

----------
- Study system: cloned human or rodent CNS receptors, channels, and transporters (PDSP panel) (Homo sapiens, UniProt P08912)
- Construct: expressed in transfected cells
- Sequence (P08912 1-532): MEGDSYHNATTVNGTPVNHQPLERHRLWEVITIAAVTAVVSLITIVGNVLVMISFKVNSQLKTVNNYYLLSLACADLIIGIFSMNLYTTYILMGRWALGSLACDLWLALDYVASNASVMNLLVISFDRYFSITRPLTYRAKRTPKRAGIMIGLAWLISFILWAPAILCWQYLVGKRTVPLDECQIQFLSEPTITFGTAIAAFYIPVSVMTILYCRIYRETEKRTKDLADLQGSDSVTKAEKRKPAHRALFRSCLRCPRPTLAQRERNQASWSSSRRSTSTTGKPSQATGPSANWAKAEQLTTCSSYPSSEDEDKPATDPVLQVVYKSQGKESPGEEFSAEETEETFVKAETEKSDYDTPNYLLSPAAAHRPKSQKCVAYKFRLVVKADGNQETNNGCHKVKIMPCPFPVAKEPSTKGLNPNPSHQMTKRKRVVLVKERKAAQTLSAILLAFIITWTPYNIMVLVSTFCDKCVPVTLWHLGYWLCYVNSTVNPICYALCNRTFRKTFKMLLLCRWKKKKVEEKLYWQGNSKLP
- Test details: PDSP GPCR panel primary binding assays at 10 μM
- Measurement setup: M5; primary assay, replicate 3
Recorded Inhibition 3 values for a group of molecules are listed next.

molecule="CNc1nc(C)nc(N[C@H]2CCC[C@@H](C(=O)NCc3ccc(C#N)cc3C(F)(F)F)C2)n1 [UNC10302679A, GSK2256294A]" result_type="Inhibition 3" endpoint_value=-10.81%
molecule="CCC(=O)N1CCC(NC(=O)Nc2ccc(OC(F)(F)F)cc2)CC1 [UNC10302681A, TPPU]" result_type="Inhibition 3" endpoint_value=-10.91%
molecule="CC(=O)N1CCC(NC(=O)NC23CC4CC(CC(C4)C2)C3)CC1 [UNC10302683A, AR9281]" result_type="Inhibition 3" endpoint_value=-10.3%

// moving on: another record for Inhibition 3
Entry O=C(NC1CC1)C(=O)C(Cc1ccccc1)NC(=O)[C@H]1CCC(=O)N1Cc1ccccc1 (stereo partly shown) [UNC10302676A, ABT-957 (Alicapistat)] , Inhibition 3 reported as -4.57%

----------
- Tested on: cloned human or rodent CNS receptors, channels, and transporters (PDSP panel)
- Test details: PDSP GPCR panel primary binding assays at 10 μM
- Measurement setup: Alpha1A; primary assay, replicate 4
Recorded Inhibition 4 values for a group of molecules are listed next.

Worked set:
molecule="O=C(NC1CC1)C(=O)C(Cc1ccccc1)NC(=O)[C@H]1CCC(=O)N1Cc1ccccc1 (stereo partly shown) [UNC10302676A, ABT-957 (Alicapistat)]" endpoint_value=-6.43%
molecule="CC(=O)N1CCC(NC(=O)NC23CC4CC(CC(C4)C2)C3)CC1 [UNC10302683A, AR9281]" endpoint_value=-7.39%
molecule="CNc1nc(C)nc(N[C@H]2CCC[C@@H](C(=O)NCc3ccc(C#N)cc3C(F)(F)F)C2)n1 [UNC10302679A, GSK2256294A]" endpoint_value=20.29%

// moving on: another record for Inhibition 4
Entry CCC(=O)N1CCC(NC(=O)Nc2ccc(OC(F)(F)F)cc2)CC1 [UNC10302681A, TPPU] , Inhibition 4 reported as -1.78%

----------
- System: cloned human or rodent CNS receptors, channels, and transporters (PDSP panel)
- Test details: PDSP GPCR panel primary binding assays at 10 μM
- Measurement setup: Receptor Alpha1A; primary assay, 10 μM
Result type: Inhibition 4 (%)
Please give a number only; it is taken to be in %.

Worked set:
molecule="c1cn2cc(-c3ccc4cn[nH]c4c3)nc(Nc3ccc(N4CCOCC4)cc3)c2n1 [UNC10302678A, Entospletinib (GS-9973)]" study_system="cloned human or rodent CNS receptors, channels, and transporters (PDSP panel)" result_type="Inhibition 4" endpoint_value=-15.24
molecule="O=c1oc2ccccc2cc1-c1cn2cc(Cc3ccc(F)cc3)sc2n1 [UNC10302680A, iMDK]" study_system="cloned human or rodent CNS receptors, channels, and transporters (PDSP panel)" result_type="Inhibition 4" endpoint_value=-9.82
molecule="Cl.NC(=O)c1cnc(N[C@@H]2CCCC[C@@H]2N)nc1Nc1cccc(-n2nccn2)c1 [UNC10302682A, P505-15 (PRT06207 HCl)]" study_system="cloned human or rodent CNS receptors, channels, and transporters (PDSP panel)" result_type="Inhibition 4" endpoint_value=1.22

Entry CCCCNc1ncc2c(-c3ccc(CN4CCN(C)CC4)cc3)cn([C@H]3CC[C@H](O)CC3)c2n1 [UNC2025C, UNC2025] , Inhibition 4 reported as 43.68

----------
- Study system: cloned human or rodent CNS receptors, channels, and transporters (PDSP panel) (Homo sapiens)
- Construct: expressed in transfected cells
- Test details: PDSP GPCR panel primary binding assays at 10 μM
- Measurement setup: D1; primary assay, replicate 2
Recorded Inhibition 2 values for a group of compounds are listed next.
Please give a number only; it is taken to be in %.

compound="CCC(=O)N1CCC(NC(=O)Nc2ccc(OC(F)(F)F)cc2)CC1 [UNC10302681A, TPPU]" unit_tag=% endpoint_value=-2.83
compound="CNc1nc(C)nc(N[C@H]2CCC[C@@H](C(=O)NCc3ccc(C#N)cc3C(F)(F)F)C2)n1 [UNC10302679A, GSK2256294A]" unit_tag=% endpoint_value=11.9
compound="O=C(NC1CC1)C(=O)C(Cc1ccccc1)NC(=O)[C@H]1CCC(=O)N1Cc1ccccc1 (stereo partly shown) [UNC10302676A, ABT-957 (Alicapistat)]" unit_tag=% endpoint_value=-11.9

// moving on: another record for Inhibition 2
Entry CC(=O)N1CCC(NC(=O)NC23CC4CC(CC(C4)C2)C3)CC1 [UNC10302683A, AR9281] , Inhibition 2 reported as -20.64

----------
- Study system: cloned human or rodent CNS receptors, channels, and transporters (PDSP panel) (Homo sapiens)
- Construct: expressed in transfected cells
- Test details: PDSP GPCR panel primary binding assays at 10 μM
- Measurement setup: 5-HT1E; primary assay, mean inhibition
Recorded Mean % values for a group of molecules are listed next.
Please give a number only; it is taken to be in %.

molecule="CC(=O)N1CCC(NC(=O)NC23CC4CC(CC(C4)C2)C3)CC1 [UNC10302683A, AR9281]" endpoint_value=-2.2
molecule="CCC(=O)N1CCC(NC(=O)Nc2ccc(OC(F)(F)F)cc2)CC1 [UNC10302681A, TPPU]" endpoint_value=-4.36
molecule="O=C(NC1CC1)C(=O)C(Cc1ccccc1)NC(=O)[C@H]1CCC(=O)N1Cc1ccccc1 (stereo partly shown) [UNC10302676A, ABT-957 (Alicapistat)]" endpoint_value=-4.73

// moving on: another record for Mean %
Entry CNc1nc(C)nc(N[C@H]2CCC[C@@H](C(=O)NCc3ccc(C#N)cc3C(F)(F)F)C2)n1 [UNC10302679A, GSK2256294A] , Mean % reported as 1.71

----------
- Test system: cloned human or rodent CNS receptors, channels, and transporters (PDSP panel)
- Test details: PDSP GPCR panel primary binding assays at 10 μM
- Measurement setup: Alpha2C; primary assay, replicate 1
Result type: Inhibition 1 (%)
Please give a number only; it is taken to be in %.

molecule="O=C(NC1CC1)C(=O)C(Cc1ccccc1)NC(=O)[C@H]1CCC(=O)N1Cc1ccccc1 (stereo partly shown) [UNC10302676A, ABT-957 (Alicapistat)]" endpoint_value=-8.12
molecule="CNc1nc(C)nc(N[C@H]2CCC[C@@H](C(=O)NCc3ccc(C#N)cc3C(F)(F)F)C2)n1 [UNC10302679A, GSK2256294A]" endpoint_value=11.32
molecule="CCC(=O)N1CCC(NC(=O)Nc2ccc(OC(F)(F)F)cc2)CC1 [UNC10302681A, TPPU]" endpoint_value=3.18

// moving on: another record for Inhibition 1
Entry CC(=O)N1CCC(NC(=O)NC23CC4CC(CC(C4)C2)C3)CC1 [UNC10302683A, AR9281] , Inhibition 1 reported as 8.16
